Collected pIC50 values appear next to each entry.
Biological target: Kv1.3 potassium channel (Homo sapiens, UniProt P22001)
Sequence (P22001 whole entry): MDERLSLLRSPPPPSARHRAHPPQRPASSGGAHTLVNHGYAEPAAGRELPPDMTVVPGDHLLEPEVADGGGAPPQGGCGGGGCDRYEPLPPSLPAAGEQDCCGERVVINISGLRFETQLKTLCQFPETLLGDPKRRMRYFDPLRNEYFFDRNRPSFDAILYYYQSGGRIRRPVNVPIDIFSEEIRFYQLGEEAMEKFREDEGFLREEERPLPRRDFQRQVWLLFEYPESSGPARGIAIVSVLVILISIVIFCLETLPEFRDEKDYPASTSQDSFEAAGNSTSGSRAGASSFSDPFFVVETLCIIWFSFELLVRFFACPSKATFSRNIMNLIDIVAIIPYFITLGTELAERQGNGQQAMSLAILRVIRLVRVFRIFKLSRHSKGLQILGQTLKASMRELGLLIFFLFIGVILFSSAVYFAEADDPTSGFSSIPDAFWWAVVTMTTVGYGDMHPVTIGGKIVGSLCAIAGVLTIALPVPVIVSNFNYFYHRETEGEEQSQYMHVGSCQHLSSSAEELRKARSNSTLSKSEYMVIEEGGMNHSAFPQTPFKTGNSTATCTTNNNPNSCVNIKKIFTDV
Assay: Kv1.3 potassium channel blocker activity, automated whole-cell patch clamp (Patchliner) in CHO-K1 cells stably expressing Kv1.3
Conditions: 30 nM-100 μM
pIC50: −log10 of the molar value.
PROPERTY MEASURED: pIC50

1) O=C(c1cn[nH]c1)N1CC[C@]2(C1)C(=O)Nc1cc(Cl)c(Cl)cc12 = > 6.00
2) O=C([C@H]1CC[C@H](O)[C@@H](O)C1)N1CC[C@]2(C1)C(=O)Nc1cc(Cl)c(Cl)cc12 (single isomer, unassigned; isomer 2) = > 5.52
3) Nc1cnc(N2CC[C@]3(C2)C(=O)Nc2cc(Cl)c(Cl)cc23)cn1 = > 6.00
4) O=C(c1cc(CO)[nH]n1)N1CC[C@]2(C1)C(=O)Nc1cc(Cl)c(Cl)cc12 = > 5.52
5) O=C(CO)N1CC[C@]2(C1)C(=O)Nc1c2cc(Cl)c(Cl)c1Cl = > 6.52
6) C[C@@H]1C[C@@]2(CN1C(=O)CO)C(=O)Nc1cc(Cl)c(Cl)cc12 (single isomer, unassigned; isomer 2) = > 5.00
7) C[C@H]1CN(C(=O)CO)CC12C(=O)Nc1cc(Cl)c(Cl)cc12 (single isomer, unassigned; diastereoisomer 2) = > 6.00
8) O=C([C@H](O)CO)N1CC[C@]2(C1)C(=O)Nc1cc(Cl)c(Cl)cc12 = > 5.52
9) CC[C@H](O)C(=O)N1CC[C@]2(C1)C(=O)Nc1cc(Cl)c(Cl)cc12 = > 5.52
10) O=C1Nc2cc(Cl)c(Cl)cc2[C@]12CCN(C(=O)[C@H]1CC[C@H](O)CC1)C2 = > 6.00
11) O=C(c1cnn(CCO)c1)N1CC[C@]2(C1)C(=O)Nc1cc(Cl)c(Cl)cc12 = > 5.00
12) Nc1ccnc(N2CC[C@]3(C2)C(=O)Nc2cc(Cl)c(Cl)cc23)n1 = > 6.00
13) O=C([C@H]1CC[C@H](O)C1)N1CC[C@]2(C1)C(=O)Nc1cc(Cl)c(Cl)cc12 (single isomer, unassigned; isomer 1) = > 6.00
14) C[C@H]1C[C@@]2(CN1C(=O)CO)C(=O)Nc1cc(Cl)c(Cl)cc12 (single isomer, unassigned; isomer 4) = > 5.00
15) O=C(c1cc[nH]n1)N1CC[C@]2(C1)C(=O)Nc1cc(Cl)c(Cl)cc12 = > 5.52
16) NC[C@@H](O)C(=O)N1CC[C@]2(C1)C(=O)Nc1cc(Cl)c(Cl)cc12 = > 6.00
17) O=C(N1CC[C@]2(C1)C(=O)Nc1cc(Cl)c(Cl)cc12)C1(O)CCNC1 (single isomer, unassigned; isomer 1) = > 6.00
18) O=C1Nc2cc(Cl)c(Cl)cc2[C@]12CCN(C(=O)[C@H]1C[C@](O)(CO)C1)C2 = > 6.00
19) O=C1Nc2cc(Cl)c(Cl)cc2[C@]12CCN(C(=O)[C@]13CNCC1C3)C2 (single isomer, unassigned; isomer 1) = > 6.00
20) CC(C)C[C@@H](N)C(=O)N1CC[C@]2(C1)C(=O)Nc1cc(Cl)c(Cl)cc12 = > 5.52
21) O=C([C@@H]1CNC[C@@H]1O)N1CC[C@]2(C1)C(=O)Nc1cc(Cl)c(Cl)cc12 (single isomer, unassigned) = > 6.00
22) CC(C)[C@@H](N)C(=O)N1CC[C@]2(C1)C(=O)Nc1cc(Cl)c(Cl)cc12 = > 5.52
23) O=C1Nc2cc(Cl)c(Cl)cc2[C@]12CCN(c1ccn[nH]1)C2 (single isomer, unassigned) = > 5.52
24) O=C([C@H]1[C@@H]2CN[C@H]1C2)N1CC[C@]2(C1)C(=O)Nc1cc(Cl)c(Cl)cc12 (single isomer, unassigned; isomer 1) = > 5.52
25) CN(C)CC(=O)N1CCC2(C1)C(=O)Nc1cc(Cl)c(Cl)cc12 (centres unmarked) = > 5.52
26) O=C1Nc2cc(Cl)c(Cl)cc2[C@]12CCN(c1c[nH]c(=O)cn1)C2 = > 6.00
27) O=C(N1CC[C@]2(C1)C(=O)Nc1cc(Cl)c(Cl)cc12)[C@]1(F)CCNC1 (single isomer, unassigned; isomer 1) = > 6.00
28) O=C([C@H]1CCNC1)N1CC[C@]2(C1)C(=O)Nc1cc(Cl)c(Cl)cc12 = > 6.00
29) O=C(C[C@@H]1CCNC1)N1CC[C@]2(C1)C(=O)Nc1cc(Cl)c(Cl)cc12 = > 6.52

Data origin: patent US20240391926A1
